Reference source: patent US7138361B2

Tested on: corn (Zea mays)
Test: Test C preemergence
Type: in vivo
Conditions: preemergence, Rate 250 g/ha, visual evaluation after 12 to 14 days
measurement-label: Plant response rating (0 to 100), Corn

compound="CC(C)(C)c1ccn(C2CCN(c3ccc(Cl)c(Br)c3)C2=O)n1 (stereo not shown)" measured_result=0
compound="CCC(C)c1ccn(C2SCN(c3cccc(OC(F)(F)F)c3)C2=O)n1 (stereo not shown)" measured_result=50
compound="CCC(C)c1ccn(C2SCN(c3cccc(C(F)(F)F)c3)C2=O)n1 (stereo not shown)" measured_result=30
compound="CCC(CC)c1ccn(C2CCN(c3ccc(C)c(OC)c3)C2=O)n1 (stereo not shown)" measured_result=0
